molecules and their reported solubility
Test: Aqueous solubility
Format: physicochemical
Settings: water (aqueous); read-out: S
readout: solubility (mg/mL)

INSERT INTO results (molecule, readout, bound_sign, reported_value) VALUES
  ('Cl.NCC(=O)NC1CCN(c2cc3c(cc2F)c(=O)c(C(=O)O)cn3C2CC2)C1.O (stereo unspecified)', 'solubility', '>', 100),
  ('C[C@H](N)C(=O)NC1CCN(c2c(F)cc3c(=O)c(C(=O)O)cn(C4CC4)c3c2F)C1.Cl.O (stereo partly specified)', 'solubility', '=', 31),
  ('C[C@H](N)C(=O)N[C@@H]1CCN(c2c(F)cc3c(=O)c(C(=O)O)cn(C4CC4)c3c2F)C1.Cl.O', 'solubility', '=', 29),
  ('Cl.N[C@H]1CCN(c2c(F)cc3c(=O)c(C(=O)O)cn(C4CC4)c3c2F)C1.O', 'solubility', '=', 17),
  ('C[C@H](N)C(=O)NC1CCN(c2nc3c(cc2F)c(=O)c(C(=O)O)cn3C2CC2)C1.Cl.O (stereo partly specified)', 'solubility', '>', 300),
  ('C[C@H](N)C(=O)N[C@H]1CCN(c2c(F)c(N)c3c(=O)c(C(=O)O)cn(C4CC4)c3c2F)C1.Cl.O', 'solubility', '=', 18);

The origin of these recorded values is ChEMBL document CHEMBL1126036.
